Test system: Cutibacterium acnes strain 10 (HM-523 (HL053PA2))
Test Protocol: Growth of C. acnes strain 10 in RCM with antibacterial agent, optical density
Type: cell-based
Assay Setup: strain 10, OD at 48 hours, RCM, read-out: IC50
pIC50: −log10 of the molar value.

Molecule	pIC50
O=C(OOC(=O)c1ccccc1)c1ccccc1 [Benzoyl Peroxide]	2.89
CO/N=C(\C(=O)N[C@@H]1C(=O)N2C(C(=O)O)=C(CSc3nc(=O)c(=O)[nH]n3C)CS[C@H]12)c1csc(N)n1	8.01
CC1(C)S[C@@H]2[C@H](NC(=O)[C@H](N)c3ccc(O)cc3)C(=O)N2[C@H]1C(=O)O	7.11
C[C@@H](O)[C@H]1C(=O)N2C(C(=O)O)=C(S[C@@H]3CN[C@H](C(=O)Nc4cccc(C(=O)O)c4)C3)[C@H](C)[C@H]12	7.11
